- EXPERIMENTAL DETAILS: Stability of compound in simulated intestinal fluid assessed as parent compound remaining at pH 6 measured after 4 hrs by HPLC analysis
- Assay type: ADME
- SETUP CONDITIONS: read-out: Stability
METRIC NAME: remaining at 4 h (%)
The reply should contain only the number, in %.

Some solved entries appear below for comparison.
| RECORD SMILES | remaining at 4 h [%] |
| --- | --- |
| Cc1nc(N2CCOCC2)c2scc([N+](=O)[O-])c2n1 | 79 |
| O=c1[nH]c(/C=C/c2ccc(F)cc2)nc2c([N+](=O)[O-])csc12 | 60 |

Let us move to another entry and its remaining at 4 h.
[ask] // remaining at 4 h lookup, key: Cc1nc2c([N+](=O)[O-])csc2c(=O)[nH]1
[reply] 91

---

Recorded MIC for the following molecules
- EXPERIMENTAL DETAILS: Effect on growth of Lactobacillus crispatus JV-V01 HM 103 measured after 48 hrs in 5% CO2 by CLSI method
- SETUP CONDITIONS: lactobacillus crispatus jv-v01, 48 h

Some solved entries appear below for comparison.
| RECORD SMILES | MIC |
| --- | --- |
| Cc1nc2c([N+](=O)[O-])cccc2c(=O)[nH]1 | > 700 µM |
| Cc1nc2c([N+](=O)[O-])coc2c(=O)[nH]1 | > 700 µM |
| O=c1[nH]c(/C=C/c2ccccc2F)nc2c([N+](=O)[O-])csc12 | > 807 µM |
| CCc1c(Cl)c(O)c(Cl)c(O)c1C(=O)O[C@H]1[C@H](O)[C@H](OC)[C@H](OC/C2=C\C=C\C[C@H](O)/C(C)=C/[C@H](CC)[C@@H](O[C@@H]3OC(C)(C)[C@@H](OC(=O)C(C)C)[C@H](O)[C@@H]3O)/C(C)=C/C(C)=C/C[C@@H]([C@@H](C)O)OC2=O)O[C@@H]1C | 30 µM |
| Cc1nc2c([N+](=O)[O-])scc2c(=O)[nH]1 | > 700 µM |

[ask] // MIC lookup, key: O=c1[nH]c(/C=C/c2ccc(F)cc2)nc2c([N+](=O)[O-])csc12
[reply] > 807 µM

[ask] // MIC lookup, key: O=c1[nH]c(/C=C/c2ccc(Cl)cc2)nc2c([N+](=O)[O-])csc12
[reply] > 767 µM

[ask] // MIC lookup, key: Cc1nc2c([N+](=O)[O-])csc2c(=O)n1CCCc1ccccc1
[reply] > 777 µM
